Entries and their measured clearance follow.
EXPERIMENT: Clearance in Sprague-Dawley rat at 3 to 5 umol/kg, iv
Assay type: ADME, organism-based
STATED_CONDITIONS: in vivo
Give your result in mL/min/kg as a bare value.

Consider the following illustrative entries.
CC(C)(C)OC(=O)NC[C@H]1CC[C@H](CNC(=O)c2cc(-c3cccc(CN)c3)nc3ccccc23)CC1 has a reported clearance of 104

# molecule CN(C)CCC1CCN(c2cc(C(=O)NC[C@H]3CC[C@H](CNC(=O)OC(C)(C)C)CC3)c3ccccc3n2)CC1 ; its clearance = 32

CC(C)(C)OC(=O)NC[C@H]1CC[C@H](CNC(=O)c2cc(N3CCC(CCN4CC(O)C4)CC3)nc3ccccc23)CC1 has a reported clearance of 70

In the following, a different molecule is considered.
Value of clearance reported for the molecule CC(C)(C)OC(=O)NC[C@H]1CC[C@H](CNC(=O)c2cc(-c3ccccc3)nc3ccccc23)CC1 is 60

* * *

Below, each of the compounds is paired with its reported inhibition at 13 µM value.
MEASUREMENT_TARGET: CYP2C9 (Homo sapiens, UniProt P11712)
Sequence (P11712 whole entry): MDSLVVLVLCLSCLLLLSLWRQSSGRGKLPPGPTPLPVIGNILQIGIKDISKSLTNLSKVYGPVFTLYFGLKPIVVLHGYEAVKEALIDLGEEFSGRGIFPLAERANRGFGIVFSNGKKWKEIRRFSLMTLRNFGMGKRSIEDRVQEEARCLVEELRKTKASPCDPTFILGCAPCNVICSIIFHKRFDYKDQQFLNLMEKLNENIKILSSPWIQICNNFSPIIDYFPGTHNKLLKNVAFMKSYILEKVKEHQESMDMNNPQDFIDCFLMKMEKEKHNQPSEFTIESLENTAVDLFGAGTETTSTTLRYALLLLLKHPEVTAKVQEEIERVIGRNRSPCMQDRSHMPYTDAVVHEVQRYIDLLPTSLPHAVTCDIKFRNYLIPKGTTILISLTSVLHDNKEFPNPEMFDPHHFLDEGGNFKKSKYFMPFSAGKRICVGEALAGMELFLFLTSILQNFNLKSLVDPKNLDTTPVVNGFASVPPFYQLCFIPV
EXPERIMENT: Inhibition of CYP2C9 at 13 uM
Assay type: ADME

CN(C)CCC1CCN(c2cc(C(=O)NC[C@H]3CC[C@H](CNC(=O)OC(C)(C)C)CC3)c3ccccc3n2)CC1 yielded inhibition at 13 µM of < 50%

Now look at this entry.
Field inhibition at 13 µM (entry CN(C)CCN1CCN(c2cc(C(=O)NC[C@H]3CC[C@H](CNC(=O)OC(C)(C)C)CC3)c3ccccc3n2)CC1 ) reads < 50%

* * *

Here, each record is paired with measured logD data.
EXPERIMENT: Lipophilicity, log D of the compound
Format: physicochemical
STATED_CONDITIONS: octanol/water
# print the numeric value only

Examples from the recorded data:
Value of measured logD for the entry CN(C)CCC1CCN(c2cc(C(=O)NC[C@H]3CC[C@H](CNC(=O)OCC(C)(C)C)CC3)c3ccccc3n2)CC1 : 4

Given item CC(C)(C)OC(=O)NC[C@H]1CC[C@H](CNC(=O)c2cc(Cl)nc3ccccc23)CC1 , the value recorded as its logD is 4.9

Entry CN(C)CCOC1CN(c2cc(C(=O)NC[C@H]3CC[C@H](CNC(=O)OC(C)(C)C)CC3)c3ccccc3n2)C1 ; logD = 3

get_value(item= CC(C)(C)OC(=O)NC[C@H]1CC[C@H](CNC(=O)c2cc(-c3cn[nH]c3)nc3ccccc23)CC1 , readout=logD) returns 3.5

The reported logD of the compound CCOC(=O)NC[C@H]1CC[C@H](CNC(=O)c2cc(N3CCC(CCN(C)C)CC3)nc3ccccc23)CC1 was 2.6

Consider CC(C)(C)OC(=O)NC[C@H]1CC[C@H](CNC(=O)c2cc(N3CCNCC3)nc3ccccc23)CC1 . Its measured logD is 2.9

Noted for CC(C)(C)OC(=O)NC[C@H]1CC[C@H](CNC(=O)c2cc(N3CCC(CN)CC3)nc3ccccc23)CC1 : its logD reads 3.2

Per the records, this compound ( CC(C)(C)OC(=O)NC[C@H]1CC[C@H](CNC(=O)c2cc(-c3ccccc3)nc3ccccc23)CC1 ) has logD equal to 5.9

New cases:
Just so you know, measured logD for CC(C)(C)OC(=O)NC[C@H]1CC[C@H](CNC(=O)c2cc(-c3ccncc3)nc3ccccc23)CC1 came out at 4.4

The recorded logD for entry CC(C)(C)OC(=O)NC[C@H]1CC[C@H](CNC(=O)c2cc(-c3ccccc3)nc3[nH]ccc23)CC1 equals 4.7

Memo: CN(C)CCC1CCN(c2cc(C(=O)NC[C@H]3CC[C@H](COC(=O)NC(C)(C)C)CC3)c3ccccc3n2)CC1 , reported logD: 3.6
